Every entry's value here was drawn from paper PMC11277489.

System: MOLT-4
Test: NCI60 five-dose screen, Leukemia
Assay type: cell-based
Settings: Homo sapiens; MOLT-4, Leukemia; five-dose screen; read-out: GI50
measured-metric: GI50

## Input Using the record for CCC12C=CCN3CCC4(c5cc(NC(=O)CN6CCN(C(c7ccc(F)cc7)c7ccc(F)cc7)CC6)c(OC)cc5N(C)C4C(O)(C(=O)OC)C1OC(C)=O)C32 (centres unmarked) [Compound 20] , report its GI50.
## Output 2140 nM

## Input Using the record for CC[C@]12C=CCN3CC[C@@]4(c5ccc(OC)cc5N(C)[C@H]4[C@@](O)(C(=O)OC)[C@@H]1OC(=O)CCC(=O)N1CCN(Cc4ccc(C(F)(F)F)cc4)CC1)[C@@H]32 [Compound 29] , report its GI50.
## Output 5250 nM

## Input Using the record for CC[C@]12C=CCN3CC[C@@]4(c5ccc(OC)cc5N(C)[C@H]4[C@@](O)(C(=O)OC)[C@@H]1OC(=O)CCCN1CCN(Cc4ccc(F)cc4)CC1)[C@@H]32 [Compound 24] , report its GI50.
## Output 1740 nM

## Input Using the record for CC[C@]12C=CCN3CC[C@@]4(c5ccc(OC)cc5N(C)[C@H]4[C@@](O)(C(=O)OC)[C@@H]1OC(=O)CCCN1CCN(c4ccc(C(F)(F)F)cc4)CC1)[C@@H]32 [Compound 22] , report its GI50.
## Output 1950 nM

Now for the compound whose GI50 we want.
## Input Using the record for CCC12C=CCN3CCC4(c5cc(NC(=O)CN6CCN(c7ccc(C(F)(F)F)cc7)CC6)c(OC)cc5N(C)C4C(O)(C(=O)OC)C1OC(C)=O)C32 (centres unmarked) [Compound 17] , report its GI50.
## Output 2090 nM
